Target: COX-1 (Ovis aries)
Sequence (P05979 25-600): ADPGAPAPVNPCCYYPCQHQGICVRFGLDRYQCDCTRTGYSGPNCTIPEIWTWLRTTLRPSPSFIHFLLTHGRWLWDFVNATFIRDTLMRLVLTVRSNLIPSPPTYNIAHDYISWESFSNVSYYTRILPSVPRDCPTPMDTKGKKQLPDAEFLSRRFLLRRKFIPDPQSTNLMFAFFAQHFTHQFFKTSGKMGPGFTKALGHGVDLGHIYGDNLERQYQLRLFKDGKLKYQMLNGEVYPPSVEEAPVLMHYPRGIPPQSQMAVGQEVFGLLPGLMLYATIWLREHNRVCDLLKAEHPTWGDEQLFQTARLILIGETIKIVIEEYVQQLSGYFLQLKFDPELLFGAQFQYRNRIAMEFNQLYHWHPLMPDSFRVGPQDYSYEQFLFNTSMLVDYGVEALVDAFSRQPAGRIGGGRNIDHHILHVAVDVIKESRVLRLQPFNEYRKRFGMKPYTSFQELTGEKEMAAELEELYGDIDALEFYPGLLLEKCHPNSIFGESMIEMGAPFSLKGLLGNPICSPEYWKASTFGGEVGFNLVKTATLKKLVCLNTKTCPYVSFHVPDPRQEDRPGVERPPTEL
REPORTED METRIC: pIC50
Give bare numbers, as −log10 of the molar value.

Consider the compound shown here: Cc1cc(C(C)(C)C)c(O)c(C(C)(C)C)c1 [Butylated Hydroxytoluene (BHT), butylated hydroxytoluene] What is its recorded pIC50?
2.23
